System: OVCAR-4 ovarian
EXPERIMENTAL_PROTOCOL: NCI-60 one-dose screen, 48 h (100 = growth as untreated, 0 = no growth, -100 = all killed)
MEASUREMENT_CONDITIONS: 10 µM unless noted
This is part of a sample that, as a whole, favours compounds with a hit. Of some 83,000 tested, about 20% had one in any assay.
growth less than 60% is MET; growth greater than or equal to 60% is NOT MET.

Answered examples (5):
{"columns": ["COMPOUND", "CLASS_ASSIGNMENT"],
 "data": [
  ["CC1(C)CC[C@]2(C(=O)O)CC[C@]3(C)C(=CCC4[C@@]5(C)C[C@@H](O)[C@@H]6OC(c7ccc(F)cc7)OC[C@@]6(C)C5CC[C@]43C)C2C1 (stereo partly drawn)", "MET"],
  ["Cn1cc(-c2cc(N)n3nc(-c4cn(C)c5ncccc45)cc3n2)c2cccnc21", "NOT MET"],
  ["C=C1CC[C@@H]2[C@]3(C)COC(c4ccccc4)O[C@@H]3CC[C@@]2(C)[C@@H]1C/C=C1/C(=O)OCC1OC(C)=O (stereo partly drawn)", "MET"],
  ["O=C(/C=C/c1cccc(OCc2ccc(F)cc2)c1)c1nc2ccccc2[nH]1", "NOT MET"],
  ["C#CCOc1ccc(/C=N/Nc2nc(-c3cc4cc(OC)ccc4oc3=O)cs2)cc1OC", "MET"]
]}

[in] Item O=C(Cn1c(/C=C/c2cccc([N+](=O)[O-])c2)nc2ccccc2c1=O)Nc1ccccc1 : growth beneath 60%, strictly?
[out] NOT MET

[in] Item COc1ccc(NC(=O)[C@H](CO)NC(=O)OC(C)(C)C)cc1C(=O)Nc1cccc(C2CC(=O)c3c(cc(OC)c(OC)c3OC)O2)c1 (stereo partly drawn) : growth beneath 60%, strictly?
[out] MET

###

System: A498 renal
EXPERIMENTAL_PROTOCOL: NCI-60 one-dose screen, 48 h (100 = growth as untreated, 0 = no growth, -100 = all killed)
MEASUREMENT_CONDITIONS: 10 µM unless noted
This is part of a sample that, as a whole, favours compounds with a hit. Of some 83,000 tested, about 20% had one in any assay.
Entries and their growth
Answer in %, number only, no unit symbol.

Consider the worked cases shown below.
{"columns": ["MOLECULE", "UNIT_ABBREVIATION", "growth"],
 "data": [
  ["COc1ccc(/C=C/c2nc3ccccc3c(=O)n2CC(=O)Nc2ccc(OC)cc2)cc1", "%", 130],
  ["C=C1CC[C@@H]2[C@]3(C)COC(c4cn[nH]c4-c4cccc(Br)c4)O[C@@H]3CC[C@@]2(C)[C@@H]1C/C=C1/C(=O)OCC1O (some centres undefined)", "%", -93.7],
  ["NS(=O)(=O)c1ccc(N=Nc2c(O)n(CC(=O)Nc3ccccc3Cl)c3ccccc23)cc1", "%", 80.2],
  ["COc1ccc(-c2nc(SCC(C)C)nc(NCCc3c[nH]c4ccccc34)c2C#N)cc1", "%", 97.4],
  ["O=C(Nc1ccc(C(F)(F)F)cc1)Nc1ccc2oc(=O)ccc2c1", "%", 27.4],
  ["COc1c(F)ccc(C(=O)Nc2ccc3nc(NC(=O)C4CCCN(S(=O)(=O)c5cccc(C(F)(F)F)c5)C4)sc3c2)c1F (centres undefined)", "%", 101]
]}

Form field growth, entry NC(=S)Nc1cccc(NC(N)=S)c1 : 101

Form field growth, entry O=C(/C=C/Nc1ccc(Cl)cc1)c1ccc2c(c1)Nc1ccccc1S2 : 108

Form field growth, entry COc1cc(C2CC(c3cc(OC)c(OC)c(OC)c3)=NN2c2ccccc2)ccc1OCc1ccc(C)cc1 (centres undefined) : 102
